Provenance of the data: the supplement of paper PMC11246515

experiment: total protein half-life in vivo (active degradation + dilution); higher = more stable protein; conditions: wild type E. coli NCM3722; growth: N-lim chemostat; doubling time 6 h
// reported total protein half-life in vivo for each item listed
observed-property: total protein half-life in vivo

residues=MKMNKSLIVLCLSAGLLASAPGISLADVNYVPQNTSDAPAIPSAALQQLTWTPVDQSKTQTTQLATGGQQLNVPGISGPVAAYSVPANIGELTLTLTSEVNKQTSVFAPNVLILDQNMTPSAFFPSSYFTYQEPGVMSADRLEGVMRLTPALGQQKLYVLVFTTEKDLQQTTQLLDPAKAYAKGVGNSIPDIPDPVARHTTDGLLKLKVKTNSSSSVLVGPLFGSSAPAPVTVGNTAAPAVAAPAPAPVKKSEPMLNDTESYFNTAIKNAVAKGDVDKALKLLDEAERLGSTSARSTFISSVKGKG endpoint_result="3.93 h"
residues=MTIYFINWVADYELKMIQYLKKKYKIKNITTPKKYNWINKKISKIGMDNAWLGRLFIKHYLNDIKKDDIIIINDSVVNKGINKQILKNINCHKVLLLRNTVGEDFILDNANYFDIIYDFEHRFIGNEKIKAIEQFFPIGMDEIRNYSLSDKNNSQPICFFLGRDKGRLQIINELAERLTTLGCKLDFNVVKDKTSSTTSKYLIEKQISYEENIRRTLNANIIVDITKENQSGWTLRILEALFFNKKLITNNINVFGSEIYSESRFFIIGHDDWDKLEYFINSSVKPMDYDSLYKFSPDKMMSTIVSDFIDK endpoint_result="5.54 h"
residues=MANWLNQLQSLLGQSSSSTSSSADQGLVKLLVPGALGGLAGLLVANKSARKLLTKYGTNALLVGGGAVAGTVLWNKYKDKIRAAHQDEPQFGAQSTPLDERTARLILALVFAAKSDGHIDAKERAAIDQQLRGAGVEEQGRVLIEQAIEQPLDPQRLATGVRNEEEALEIYFLSCAAIDIDHFMERSYLNALGDALKIPQDVRDGIERDLEQQKRTLAE endpoint_result="4.91 h"

###

assay: total protein half-life in vivo (active degradation + dilution); higher = more stable protein; details: wild type E. coli NCM3722; growth: P-lim chemostat; doubling time 6 h
Overview of recorded total protein half-life in vivo for various sequences
observed-property: total protein half-life in vivo (h)

residues="MNLHEYQAKQLFARYGLPAPVGYACTTPREAEEAASKIGAGPWVVKCQVHAGGRGKAGGVKVVNSKEDIRAFAENWLGKRLVTYQTDANGQPVNQILVEAATDIAKELYLGAVVDRSSRRVVFMASTEGGVEIEKVAEETPHLIHKVALDPLTGPMPYQGRELAFKLGLEGKLVQQFTKIFMGLATIFLERDLALIEINPLVITKQGDLICLDGKLGADGNALFRQPDLREMRDQSQEDPREAQAAQWELNYVALDGNIGCMVNGAGLAMGTMDIVKLHGGEPANFLDVGGGATKERVTEAFKIILSDDKVKAVLVNIFGGIVRCDLIADGIIGAVAEVGVNVPVVVRLEGNNAELGAKKLADSGLNIIAAKGLTDAAQQVVAAVEGK [P0A836]" observed_property="total protein half-life in vivo" endpoint_result=5.95
residues="MSWISPELIEILLTILKAVVILLVVVTCGAFMSFGERRLLGLFQNRYGPNRVGWGGSLQLVADMIKMFFKEDWIPKFSDRVIFTLAPMIAFTSLLLAFAIVPVSPGWVVADLNIGILFFLMMAGLAVYAVLFAGWSSNNKYSLLGAMRASAQTLSYEVFLGLSLMGVVAQAGSFNMTDIVNSQAHVWNVIPQFFGFITFAIAGVAVCHRHPFDQPEAEQELADGYHIEYSGMKFGLFFVGEYIGIVTISALMVTLFFGGWQGPLLPPFIWFALKTAFFMMMFILIRASLPRPRYDQVMSFGWKICLPLTLINLLVTAAVILWQAQ [P0AFD4]" observed_property="total protein half-life in vivo" endpoint_result=6.24
residues="MTGMTNVTKLASEPSGQEFLVFTLGDEEYGIDILKVQEIRGYDQVTRIANTPAFIKGVTNLRGVIVPIVDLRIKFSQVDVDYNDNTVVIVLNLGQRVVGIVVDGVSDVLSLTAEQIRPAPEFAVTLSTEYLTGLGALGDRMLILVNIEKLLNSEEMALLDSAASEVA [P0A964]" observed_property="total protein half-life in vivo" endpoint_result=0.859
residues=MVTINNARKILQRVDTLPLYLHAYAFHLNMRLERVLPADLLDIASENNLRGVKIHVLDGERFSLGNMDDKELSAFGDKARRLNLDIHIETSASDKASIDEAVAIALKTGASSVRFYPRYEGNLRDVLSIIANDIAYVRETYQDSGLTFTIEQHEDLKSHELVSLVKESEMESLSLLFDFANMINANEHPIDALKTMAPHITQVHIKDALIVKEPGGLGHKACISGQGDMPFKALLTHLICLGDDEPQVTAYGLEEEVDYYAPAFRFEDEDDNPWIPYRQMSETPLPENHLLDARLRKEKEDAINQINHVRNVLQQIKQEANHLLNH observed_property="total protein half-life in vivo" endpoint_result=2.88
residues="MPLLDIRNLTIEFKTGDEWVKAVDRVSMTLTEGEIRGLVGESGSGKSLIAKAICGVNKDNWRVTADRMRFDDIDLLRLSARERRKLVGHNVSMIFQEPQSCLDPSERVGRQLMQNIPAWTYKGRWWQRFGWRKRRAIELLHRVGIKDHKDAMRSFPYELTEGECQKVMIAIALANQPRLLIADEPTNSMEPTTQAQIFRLLTRLNQNSNTTILLISHDLQMLSQWADKINVLYCGQTVETAPSKELVTMPHHPYTQALIRAIPDFGSAMPHKSRLNTLPGAIPLLEQLPIGCRLGPRCPYAQRECIVTPRLTGAKNHLYACHFPLNMEKE [P0AAH4]" observed_property="total protein half-life in vivo" endpoint_result=5.43
